All values here come from ChEMBL document CHEMBL1145338.

- Method notes: Tmax in Sprague-Dawley rat at 5 mg/kg, po
- Assay type: ADME, organism-based
- Set-up: dose 5 mg/kg, route oral
- Setup conditions: in vivo
Test readout: Tmax (h)

>>> quantitative_readout("COc1ccc(N(C(=O)Oc2c(C)cccc2C)c2ccnc(Nc3cc(OC)c(OCCCN4CCN(C)CC4)c(OC)c3)n2)c(OC)c1")
4

---

- Study target: Mitogen-activated protein kinase 10 (Homo sapiens, UniProt P53779)
- Sequence (P53779 whole entry): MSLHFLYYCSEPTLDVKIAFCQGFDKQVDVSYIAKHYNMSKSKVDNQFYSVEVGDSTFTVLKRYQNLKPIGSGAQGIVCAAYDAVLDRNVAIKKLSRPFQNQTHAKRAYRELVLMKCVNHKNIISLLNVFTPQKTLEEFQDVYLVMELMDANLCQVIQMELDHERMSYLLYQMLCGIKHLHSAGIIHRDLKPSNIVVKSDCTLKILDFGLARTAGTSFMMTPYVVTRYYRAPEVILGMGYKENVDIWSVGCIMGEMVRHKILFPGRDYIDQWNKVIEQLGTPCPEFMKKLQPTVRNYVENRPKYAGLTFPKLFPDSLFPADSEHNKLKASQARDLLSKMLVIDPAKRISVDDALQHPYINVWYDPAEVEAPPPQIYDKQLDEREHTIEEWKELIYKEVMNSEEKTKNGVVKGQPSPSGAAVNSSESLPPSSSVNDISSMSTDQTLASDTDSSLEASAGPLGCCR
Test readout: IC50

>>> result("COc1ccc(N(C(=O)Oc2c(C)cccc2C)c2ccnc(Nc3cc(OC)c(OCCCN4CCN(C)CC4)c(OC)c3)n2)c(OC)c1")
"> 5 µM"

---

This section lists log10 of IC50 readings for Proto-oncogene tyrosine-protein kinase Src (Homo sapiens).
Test readout: log10 of IC50 (log10 of the value in nM)

>>> quantitative_readout("COc1ccc(N(C(=O)Oc2c(C)cccc2C)c2ccnc(Nc3ccc(OCCN(C)C)cc3)n2)c(OC)c1")
0.60
>>> quantitative_readout("Cc1cccc(C)c1OC(=O)N(c1ccc2ccccc2c1)c1ccnc(Nc2ccc(N3CCN(C)CC3)cc2)n1")
1.15
>>> quantitative_readout("Cc1cccc(C)c1OC(=O)N(c1ccc(-c2ccccc2)cc1)c1ccnc(Nc2ccc(N3CCN(C)CC3)cc2)n1")
1.99
>>> quantitative_readout("COc1ccc(N(C(=O)Oc2c(C)cccc2C)c2ccnc(Nc3ccc(OCCCN(C)C)cc3)n2)c(OC)c1")
0.60
>>> quantitative_readout("COc1ccc(N(C(=O)Oc2c(C)cccc2C)c2ccnc(Nc3cc(OC)c(OCCN4CCOCC4)c(OC)c3)n2)c(OC)c1")
0.30
>>> quantitative_readout("COc1ccc(N(C(=O)Oc2c(C)cccc2C)c2ccnc(Nc3ccc(N4CCN(C)CC4)c(F)c3)n2)c(OC)c1")
0.30
>>> quantitative_readout("COc1ccc(N(C(=O)Oc2c(C)cccc2C)c2ccnc(Nc3cc(OC)c(OCCCN4CCN(C)CC4)c(OC)c3)n2)c(OC)c1")
0.00
>>> quantitative_readout("COc1ccc(N(C(=O)Oc2c(C)cccc2C)c2ccnc(Nc3cc(OC)c(OCCN4CCN(C)CC4)c(OC)c3)n2)c(OC)c1")
0.00
>>> quantitative_readout("COc1ccccc1N(C(=O)Oc1c(C)cccc1C)c1ccnc(Nc2ccc(N3CCN(C)CC3)cc2)n1")
0.60
>>> quantitative_readout("COc1ccc(N(C(=O)Oc2c(C)cccc2C)c2ccnc(Nc3ccc(OCCCN4CCCCC4)c(F)c3)n2)c(OC)c1")
1.08
>>> quantitative_readout("COc1ccc(N(C(=O)Oc2c(C)cccc2C)c2ccnc(Nc3cc(OC)c(N4CCN(C)CC4)c(OC)c3)n2)c(OC)c1")
0.00

---

- Study target: Tyrosine-protein kinase BTK (Homo sapiens, UniProt Q06187)
- Sequence (Q06187 whole entry): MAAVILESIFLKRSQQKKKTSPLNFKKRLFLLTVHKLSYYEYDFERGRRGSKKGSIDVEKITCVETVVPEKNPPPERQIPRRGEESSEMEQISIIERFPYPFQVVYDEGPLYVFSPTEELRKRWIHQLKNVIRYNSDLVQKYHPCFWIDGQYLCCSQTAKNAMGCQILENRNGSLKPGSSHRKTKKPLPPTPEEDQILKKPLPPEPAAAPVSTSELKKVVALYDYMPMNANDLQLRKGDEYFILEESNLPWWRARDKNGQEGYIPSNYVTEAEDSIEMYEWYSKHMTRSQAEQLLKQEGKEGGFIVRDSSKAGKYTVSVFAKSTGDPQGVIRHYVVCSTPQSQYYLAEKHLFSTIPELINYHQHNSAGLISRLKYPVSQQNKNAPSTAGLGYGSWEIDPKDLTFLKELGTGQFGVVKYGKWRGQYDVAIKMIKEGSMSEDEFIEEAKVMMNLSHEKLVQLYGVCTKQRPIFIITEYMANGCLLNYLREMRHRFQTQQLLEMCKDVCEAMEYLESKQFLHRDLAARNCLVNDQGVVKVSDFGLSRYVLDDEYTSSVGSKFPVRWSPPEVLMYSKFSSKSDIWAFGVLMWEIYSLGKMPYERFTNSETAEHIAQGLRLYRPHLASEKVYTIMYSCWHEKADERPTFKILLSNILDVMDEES
Test readout: IC50 (nM)

>>> quantitative_readout("COc1ccc(N(C(=O)Oc2c(C)cccc2C)c2ccnc(Nc3cc(OC)c(OCCCN4CCN(C)CC4)c(OC)c3)n2)c(OC)c1")
100

---

- Method notes: Cmax in Sprague-Dawley rat at 5 mg/kg, po
- Type: ADME, organism-based
- Design: dose 5 mg/kg, route oral
- Setup conditions: in vivo
Test readout: Cmax (ng/mL)

>>> quantitative_readout("COc1ccc(N(C(=O)Oc2c(C)cccc2C)c2ccnc(Nc3cc(OC)c(OCCCN4CCN(C)CC4)c(OC)c3)n2)c(OC)c1")
22

---

Target or system Tyrosine-protein kinase Lck (Homo sapiens, UniProt P06239): recorded pIC50 listed per item.
pIC50: −log10 of the molar value.
Test readout: pIC50

>>> quantitative_readout("COc1ccc(N(C(=O)Oc2c(C)cccc2C)c2ccnc(Nc3ccc(N4CCN(C)CC4)cc3)n2)c(OC)c1")
8.70
>>> quantitative_readout("COc1ccc(N(C(=O)Oc2c(C)cccc2C)c2ccnc(Nc3cc(OC)c(OCCN4CCN(C)CC4)c(OC)c3)n2)c(OC)c1")
9.00
>>> quantitative_readout("COc1ccc(N(C(=O)Oc2c(C)cccc2C)c2ccnc(Nc3cc(OC)c(OCCN4CCOCC4)c(OC)c3)n2)c(OC)c1")
9.00
>>> quantitative_readout("Cc1cccc(C)c1OC(=O)N(c1ccccc1)c1ccnc(Nc2ccc(N3CCN(C)CC3)cc2)n1")
7.85
>>> quantitative_readout("COc1ccc(N(C(=O)Oc2c(C)cccc2C)c2ccnc(Nc3ccc(N4CCN(C)CC4)c(F)c3)n2)c(OC)c1")
9.00
>>> quantitative_readout("COc1ccc(N(C(=O)Oc2c(C)cccc2C)c2ccnc(Nc3ccc(OCCCN4CCN(C)CC4)c(F)c3)n2)c(OC)c1")
9.00
>>> quantitative_readout("COc1ccc(N(C(=O)Oc2c(C)cccc2C)c2ccnc(Nc3ccc(OCCCN4CCN(C)CC4)c(OC)c3)n2)c(OC)c1")
9.00
>>> quantitative_readout("COc1ccc(N(C(=O)Oc2c(C)cccc2C)c2ccnc(Nc3ccc(N4CCN(C)CC4)cc3)n2)cc1")
7.92
>>> quantitative_readout("Cc1cccc(C)c1OC(=O)N(c1ccc2ccccc2c1)c1ccnc(Nc2ccc(N3CCN(C)CC3)cc2)n1")
8.00
>>> quantitative_readout("COc1ccccc1N(C(=O)Oc1c(C)cccc1C)c1ccnc(Nc2ccc(N3CCN(C)CC3)cc2)n1")
9.00
>>> quantitative_readout("COc1ccc(N(C(=O)Oc2c(C)cccc2C)c2ccnc(Nc3ccc(OCCCN4CCCCC4)c(F)c3)n2)c(OC)c1")
8.70
>>> quantitative_readout("COc1ccc(N(C(=O)Oc2c(C)cccc2C)c2ccnc(Nc3ccc(OCCN(C)C)cc3)n2)c(OC)c1")
9.00
>>> quantitative_readout("COc1ccc(N(C(=O)Oc2c(C)cccc2C)c2ccnc(Nc3cc(OC)c(N4CCN(C)CC4)c(OC)c3)n2)c(OC)c1")
9.00
>>> quantitative_readout("Cc1cccc(C)c1OC(=O)N(c1cccc(-c2ccccc2)c1)c1ccnc(Nc2ccc(N3CCN(C)CC3)cc2)n1")
7.31
>>> quantitative_readout("Cc1cccc(C)c1OC(=O)N(c1ccc(-c2ccccc2)cc1)c1ccnc(Nc2ccc(N3CCN(C)CC3)cc2)n1")
7.89
>>> quantitative_readout("Cc1cccc(C)c1OC(=O)N(c1ccnc(Nc2ccc(N3CCN(C)CC3)cc2)n1)c1ccc(F)cc1OC(C)C")
9.00
>>> quantitative_readout("COc1ccc(N(C(=O)Oc2c(C)cccc2C)c2ccnc(Nc3ccc(OCCCN(C)C)cc3)n2)c(OC)c1")
9.00
>>> quantitative_readout("COc1ccc(N(C(=O)Oc2c(C)cccc2C)c2ccnc(Nc3ccc(N4CCN(C)CC4)c(OC)c3)n2)c(OC)c1")
9.00

---

- Study target: Insulin-like growth factor 1 receptor (Homo sapiens, UniProt P08069)
- Sequence (P08069 31-736 limits assumed): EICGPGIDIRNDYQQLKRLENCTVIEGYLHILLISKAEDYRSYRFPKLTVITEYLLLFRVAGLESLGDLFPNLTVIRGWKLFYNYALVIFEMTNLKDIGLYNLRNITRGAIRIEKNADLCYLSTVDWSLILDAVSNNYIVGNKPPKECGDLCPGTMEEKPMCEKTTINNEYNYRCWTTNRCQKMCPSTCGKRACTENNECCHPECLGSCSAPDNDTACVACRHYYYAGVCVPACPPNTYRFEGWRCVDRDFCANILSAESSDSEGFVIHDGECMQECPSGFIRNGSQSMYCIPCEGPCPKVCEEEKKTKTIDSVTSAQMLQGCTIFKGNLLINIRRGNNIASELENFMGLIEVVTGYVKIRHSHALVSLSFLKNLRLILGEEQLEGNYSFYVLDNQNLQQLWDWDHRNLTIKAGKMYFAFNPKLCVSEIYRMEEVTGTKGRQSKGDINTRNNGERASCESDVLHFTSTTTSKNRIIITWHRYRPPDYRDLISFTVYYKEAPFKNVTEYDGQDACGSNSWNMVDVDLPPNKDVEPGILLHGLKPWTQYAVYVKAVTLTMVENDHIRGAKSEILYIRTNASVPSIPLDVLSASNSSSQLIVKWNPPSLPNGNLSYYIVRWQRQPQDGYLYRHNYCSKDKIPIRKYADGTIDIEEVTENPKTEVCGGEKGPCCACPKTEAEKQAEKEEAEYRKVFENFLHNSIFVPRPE
- Sequence (P08069 741-1367 limits assumed): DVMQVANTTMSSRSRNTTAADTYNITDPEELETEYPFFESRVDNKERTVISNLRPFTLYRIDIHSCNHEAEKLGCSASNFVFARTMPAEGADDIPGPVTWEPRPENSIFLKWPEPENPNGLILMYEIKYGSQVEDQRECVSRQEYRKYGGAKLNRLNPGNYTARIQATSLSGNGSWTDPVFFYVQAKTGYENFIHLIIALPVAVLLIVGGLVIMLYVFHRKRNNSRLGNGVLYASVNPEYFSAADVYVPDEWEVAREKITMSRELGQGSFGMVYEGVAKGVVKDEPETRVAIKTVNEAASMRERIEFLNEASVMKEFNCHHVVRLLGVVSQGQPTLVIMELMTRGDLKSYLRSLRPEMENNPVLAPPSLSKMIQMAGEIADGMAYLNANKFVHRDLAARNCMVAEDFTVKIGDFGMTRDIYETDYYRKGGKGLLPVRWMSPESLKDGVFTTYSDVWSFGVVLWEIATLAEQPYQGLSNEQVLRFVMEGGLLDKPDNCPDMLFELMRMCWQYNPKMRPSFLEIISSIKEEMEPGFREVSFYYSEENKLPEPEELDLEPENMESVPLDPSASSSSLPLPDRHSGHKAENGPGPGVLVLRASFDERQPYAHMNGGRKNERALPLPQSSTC
pIC50: −log10 of the molar value.
Test readout: pIC50

>>> result("COc1ccc(N(C(=O)Oc2c(C)cccc2C)c2ccnc(Nc3cc(OC)c(OCCCN4CCN(C)CC4)c(OC)c3)n2)c(OC)c1")
"< 4.60"

---

pIC50: −log10 of the molar value.
List of pIC50 tested on Vascular endothelial growth factor receptor 2 (Homo sapiens).
Sequence (P35968 whole entry): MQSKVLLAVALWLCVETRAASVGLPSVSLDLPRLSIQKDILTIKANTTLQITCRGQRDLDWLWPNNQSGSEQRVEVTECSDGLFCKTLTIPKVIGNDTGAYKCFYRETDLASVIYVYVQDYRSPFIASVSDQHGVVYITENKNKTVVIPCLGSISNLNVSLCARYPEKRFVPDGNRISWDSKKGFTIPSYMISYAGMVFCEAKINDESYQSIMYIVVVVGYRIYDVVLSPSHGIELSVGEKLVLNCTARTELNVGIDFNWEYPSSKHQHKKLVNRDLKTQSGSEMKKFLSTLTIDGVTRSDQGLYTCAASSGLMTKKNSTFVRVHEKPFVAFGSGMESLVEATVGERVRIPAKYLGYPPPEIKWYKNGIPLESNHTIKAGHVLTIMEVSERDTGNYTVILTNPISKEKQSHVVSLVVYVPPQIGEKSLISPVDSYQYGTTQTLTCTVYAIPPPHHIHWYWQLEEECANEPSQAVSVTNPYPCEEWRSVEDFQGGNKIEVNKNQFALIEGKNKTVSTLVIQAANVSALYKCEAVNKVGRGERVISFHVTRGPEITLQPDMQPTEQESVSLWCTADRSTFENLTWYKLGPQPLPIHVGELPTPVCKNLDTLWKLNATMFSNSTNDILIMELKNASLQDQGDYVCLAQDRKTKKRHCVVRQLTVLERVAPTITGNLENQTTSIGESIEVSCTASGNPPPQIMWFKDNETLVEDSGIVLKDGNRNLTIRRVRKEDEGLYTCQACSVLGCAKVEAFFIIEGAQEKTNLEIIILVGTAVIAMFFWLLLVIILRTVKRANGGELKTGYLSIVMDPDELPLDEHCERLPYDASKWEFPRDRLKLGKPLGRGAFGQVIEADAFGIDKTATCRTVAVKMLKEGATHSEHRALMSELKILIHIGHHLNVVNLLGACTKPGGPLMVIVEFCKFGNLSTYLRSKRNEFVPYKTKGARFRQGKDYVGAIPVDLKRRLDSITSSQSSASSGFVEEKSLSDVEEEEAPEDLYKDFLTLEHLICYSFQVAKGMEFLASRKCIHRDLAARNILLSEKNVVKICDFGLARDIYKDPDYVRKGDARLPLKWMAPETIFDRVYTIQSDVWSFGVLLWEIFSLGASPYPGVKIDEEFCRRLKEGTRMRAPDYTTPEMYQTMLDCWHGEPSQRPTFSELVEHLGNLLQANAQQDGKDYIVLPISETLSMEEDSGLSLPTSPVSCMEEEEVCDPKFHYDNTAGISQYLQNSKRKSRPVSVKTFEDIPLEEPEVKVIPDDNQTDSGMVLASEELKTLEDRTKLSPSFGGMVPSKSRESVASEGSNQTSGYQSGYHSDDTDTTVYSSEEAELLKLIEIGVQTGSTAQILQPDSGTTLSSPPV
Test readout: pIC50

>>> quantitative_readout("COc1ccc(N(C(=O)Oc2c(C)cccc2C)c2ccnc(Nc3cc(OC)c(OCCN4CCN(C)CC4)c(OC)c3)n2)c(OC)c1")
6.64
>>> quantitative_readout("COc1ccc(N(C(=O)Oc2c(C)cccc2C)c2ccnc(Nc3cc(OC)c(N4CCN(C)CC4)c(OC)c3)n2)c(OC)c1")
6.77
>>> quantitative_readout("COc1ccccc1N(C(=O)Oc1c(C)cccc1C)c1ccnc(Nc2ccc(N3CCN(C)CC3)cc2)n1")
6.72
>>> quantitative_readout("Cc1cccc(C)c1OC(=O)N(c1ccccc1)c1ccnc(Nc2ccc(N3CCN(C)CC3)cc2)n1")
6.72
>>> quantitative_readout("COc1ccc(N(C(=O)Oc2c(C)cccc2C)c2ccnc(Nc3ccc(N4CCN(C)CC4)cc3)n2)cc1")
6.38
>>> quantitative_readout("COc1ccc(N(C(=O)Oc2c(C)cccc2C)c2ccnc(Nc3ccc(N4CCN(C)CC4)c(OC)c3)n2)c(OC)c1")
6.85
>>> quantitative_readout("Cc1cccc(C)c1OC(=O)N(c1cccc(-c2ccccc2)c1)c1ccnc(Nc2ccc(N3CCN(C)CC3)cc2)n1")
5.72
>>> quantitative_readout("COc1ccc(N(C(=O)Oc2c(C)cccc2C)c2ccnc(Nc3cc(OC)c(OCCN4CCOCC4)c(OC)c3)n2)c(OC)c1")
6.77
>>> quantitative_readout("COc1ccc(N(C(=O)Oc2c(C)cccc2C)c2ccnc(Nc3ccc(OCCN(C)C)cc3)n2)c(OC)c1")
6.66
>>> quantitative_readout("Cc1cccc(C)c1OC(=O)N(c1ccc(-c2ccccc2)cc1)c1ccnc(Nc2ccc(N3CCN(C)CC3)cc2)n1")
6.23
>>> quantitative_readout("COc1ccc(N(C(=O)Oc2c(C)cccc2C)c2ccnc(Nc3ccc(OCCCN4CCN(C)CC4)c(F)c3)n2)c(OC)c1")
6.23
>>> quantitative_readout("Cc1cccc(C)c1OC(=O)N(c1ccnc(Nc2ccc(N3CCN(C)CC3)cc2)n1)c1ccc(F)cc1OC(C)C")
5.32
>>> quantitative_readout("COc1ccc(N(C(=O)Oc2c(C)cccc2C)c2ccnc(Nc3ccc(OCCCN4CCN(C)CC4)c(OC)c3)n2)c(OC)c1")
6.68
>>> quantitative_readout("COc1ccc(N(C(=O)Oc2c(C)cccc2C)c2ccnc(Nc3ccc(N4CCN(C)CC4)c(F)c3)n2)c(OC)c1")
6.59
>>> quantitative_readout("COc1ccc(N(C(=O)Oc2c(C)cccc2C)c2ccnc(Nc3ccc(OCCCN(C)C)cc3)n2)c(OC)c1")
6.64
>>> quantitative_readout("COc1ccc(N(C(=O)Oc2c(C)cccc2C)c2ccnc(Nc3ccc(N4CCN(C)CC4)cc3)n2)c(OC)c1")
6.19
>>> quantitative_readout("Cc1cccc(C)c1OC(=O)N(c1ccc2ccccc2c1)c1ccnc(Nc2ccc(N3CCN(C)CC3)cc2)n1")
6.89
>>> quantitative_readout("COc1ccc(N(C(=O)Oc2c(C)cccc2C)c2ccnc(Nc3ccc(OCCCN4CCCCC4)c(F)c3)n2)c(OC)c1")
6.21
